- test_protocol: protein stability index of a GFP-peptide fusion (yeast GPS) (PSI 1-4); higher = more stable; sorted into four equal gates, so the index is relative within each strain
- run_conditions: san1∆
endpoint_name: protein stability index

INSERT INTO assay_data (residue_string, result) VALUES
  ('RMRFPPFDDDEPPLSYE [PRP8]', 2.95),
  ('ARIALRHLEKEGIIKPI [RPS25A]', 3.06),
  ('IITNINAIFLSSEQDYS [YCG1]', 1.58),
  ('IHTQLSEIKQQINKAQI [YJL039C/NUP192]', 2.81),
  ('NALWILVDLVSHFSPDI [ITC1]', 1.67);

Just so you know, measured protein stability index for SKMSDESFAELMTKLNS [RPC17] came out at 3.09

Just so you know, measured protein stability index for YDRNSNNNHKDKKLLRR [SWI1] came out at 3.06

Just so you know, measured protein stability index for PEEEAAIRRENEWAEDR [SKP1] came out at 3.34

Just so you know, measured protein stability index for GKLEVPGYVDIVKTSSG [RPS19A] came out at 3.19

Just so you know, measured protein stability index for ITKMLASDESLLRYGGA [RPN2] came out at 3.23

Just so you know, measured protein stability index for NSRGKFDDACNQIWNIA [SSN2] came out at 2.87

Just so you know, measured protein stability index for GAMTPEEIFFKSVRILK [RPC40] came out at 2.96

Just so you know, measured protein stability index for ELKIRSKTENVRRLEAQ [RPT6] came out at 1.58

Just so you know, measured protein stability index for NPYNIVPQGKIVALTNA [SMC3] came out at 2.82

Just so you know, measured protein stability index for DGSQQNLQQDKTNFQDV [REC8] came out at 3.42

Just so you know, measured protein stability index for YSDENDPSISNNIRQAI [RRP4] came out at 3

Just so you know, measured protein stability index for GNPLSIGTLEEIIDDDH [RPT2] came out at 3.14

Just so you know, measured protein stability index for NENFRLVYDVKGRFAVH [RPS4A] came out at 3.32

Just so you know, measured protein stability index for SEEVDDLSMVPKMKDEE [SNF2] came out at 3.29

Just so you know, measured protein stability index for RHNKSHTLCNRCGRRSF [RPL37A] came out at 2.82

Just so you know, measured protein stability index for ELLAYQFASPVRWIETQ [FAS2] came out at 1.92

Just so you know, measured protein stability index for GLLDESPNRLRVRTDDS [YML031W/NDC1] came out at 1.67

Just so you know, measured protein stability index for CVKAIEALFQSRPDILS [YCG1] came out at 3.03

Just so you know, measured protein stability index for KNLISRINTLPQVQLPV [ECM29] came out at 2.9

Just so you know, measured protein stability index for SMDTKKKHKQKKVLEID [BRN1] came out at 3.32

Just so you know, measured protein stability index for IPQDFENEVSDIDVTIV [ESC2] came out at 2.77

Just so you know, measured protein stability index for AFNRFMAESLVDLEEVM [SSN8] came out at 2.36

###

- test_protocol: protein stability index of a GFP-peptide fusion (yeast GPS) (PSI 1-4); higher = more stable; sorted into four equal gates, so the index is relative within each strain
- run_conditions: doa10∆
endpoint_name: protein stability index
Form: value (number only, do not type unit).

Here's what some known entries look like.
INSERT INTO results (residue_string, endpoint_name, result) VALUES
  ('IELNFDAVKDFKLGKFN [QCR2]', 'protein stability index', 3.31),
  ('TGMSSMSPFLRKVVKPS [SRB4]', 'protein stability index', 2.76),
  ('SNTRTMTYKNKLTVCFD [MED2]', 'protein stability index', 2.51),
  ('ALIRRDFTLIPRMASVF [CDC53]', 'protein stability index', 2.12);

Just so you know, measured protein stability index for PGDVLDKDAFIPKLKPA [SNU114] came out at 1.89

Just so you know, measured protein stability index for TLRKELEQIQVQLKDAN [YIL149C/MLP2] came out at 2.51

###

- test_protocol: protein stability index of a GFP-peptide fusion (yeast GPS) (PSI 1-4); higher = more stable; sorted into four equal gates, so the index is relative within each strain
- run_conditions: doa10∆
endpoint_name: protein stability index
Form: value (number only, do not type unit).

INSERT INTO measurements (residue_string, result) VALUES
  ('YNHNDGGDGRDYKGAKL [RRI1]', 2.57);

Just so you know, measured protein stability index for KKKRFEIKKWTAVAFWS [HRT1] came out at 1.97

Just so you know, measured protein stability index for TMGGNAELELVDSLDPF [SMC4] came out at 3.25

Just so you know, measured protein stability index for ESQPKQTGTRRNSKLLN [MCD1] came out at 3.29

###

- test_protocol: protein stability index of a GFP-peptide fusion (yeast GPS) (PSI 1-4); higher = more stable; sorted into four equal gates, so the index is relative within each strain
- run_conditions: san1∆
Recorded protein stability index values for a group of sequences are listed next.
Form: value (number only, do not type unit).

INSERT INTO measurements (residue_string, endpoint_name, result) VALUES
  ('KKICNHPFVFEEVEDQI [SNF2]', 'protein stability index', 2.94),
  ('IDPDTKAPNAVVITFEK [RPB11]', 'protein stability index', 3.09),
  ('KREASRGFFDILSLATE [MCD1]', 'protein stability index', 2.91),
  ('SRAQILQIHSRKMTTDD [RPT5]', 'protein stability index', 2.92),
  ('MVLEATVLVIDNSEYSR [RPN10]', 'protein stability index', 1.85),
  ('FRVNNASINTSATVKTS [ECM29]', 'protein stability index', 1.95),
  ('LFMKSLIENCKKRNMPL [SWI1]', 'protein stability index', 2.83),
  ('EEAPAPTPAASAPAPAA [FAS2]', 'protein stability index', 2.85),
  ('FMGTAFNQEGDYNFKYG [PRP8]', 'protein stability index', 3.34),
  ('LQSIVNEISRNGTMINE [PCI8]', 'protein stability index', 2.67);

Just so you know, measured protein stability index for EKVNNNATLTPNDSNDE [SWI1] came out at 3.11

Just so you know, measured protein stability index for LLICIGTSLKVAPVSEI [SIR2] came out at 2.29

Just so you know, measured protein stability index for SDKESNAYGFIEWCSRC [YJL039C/NUP192] came out at 2.97

Just so you know, measured protein stability index for LTNMMSPMGNAYSMGAQ [PGD1] came out at 2.49

Just so you know, measured protein stability index for LAFYQVTPEEDEEEDEE [RPL22A] came out at 3.61

Just so you know, measured protein stability index for VTEDGTVVTVVSTAKFS [RPL22A] came out at 2.2

Just so you know, measured protein stability index for ELGEKKNEKLKFQETLL [ISW2] came out at 2.85

Just so you know, measured protein stability index for SHSLALNEITNSKVNKL [DSN1] came out at 2.48

Just so you know, measured protein stability index for AKLIRSAIEHTTLKSVT [RPO21] came out at 3.19

Just so you know, measured protein stability index for KEKEAAESPEEADVEMS [PUP2] came out at 2.99

Just so you know, measured protein stability index for FYKNKYSSKPYKVDNMT [RPN2] came out at 2.79

###

- test_protocol: protein stability index of a GFP-peptide fusion (yeast GPS) (PSI 1-4); higher = more stable; sorted into four equal gates, so the index is relative within each strain
- run_conditions: ubr1∆
Respond with criterion met for protein stability index values of 3 and above, criterion not met for values below.

Example cases with answers are listed next.
INSERT INTO results (residue_string, answer_label) VALUES
  ('ELLEERFQDSNPYVRTK [YCS4]', 'criterion not met'),
  ('QSTPQPDDMVEINSVGN [ITC1]', 'criterion met'),
  ('EKESVEKQHENAVLELG [SMC3]', 'criterion met'),
  ('LKMQQQQQQQQQQQQQQ [GAL11]', 'criterion not met'),
  ('KKNVWRSINNLIQEHDS [BRN1]', 'criterion not met');

Query string: Given IGIVDYEAGASHGNPVV [FAS1] , state whether its protein stability index is at least 3.
Result string: criterion met

Query string: Given SSPEEPFMSYSPQLTAI [SNF12] , state whether its protein stability index is at least 3.
Result string: criterion not met

Query string: Given KTICNLLISDTESNELI [IRR1] , state whether its protein stability index is at least 3.
Result string: criterion not met

Query string: Given HKLRESLPLIVFLRNRL [RPS4A] , state whether its protein stability index is at least 3.
Result string: criterion not met
